The reader will find Ki measurements below, all made with C-C chemokine receptor type 3 (Homo sapiens).
Sequence (P51677 whole entry): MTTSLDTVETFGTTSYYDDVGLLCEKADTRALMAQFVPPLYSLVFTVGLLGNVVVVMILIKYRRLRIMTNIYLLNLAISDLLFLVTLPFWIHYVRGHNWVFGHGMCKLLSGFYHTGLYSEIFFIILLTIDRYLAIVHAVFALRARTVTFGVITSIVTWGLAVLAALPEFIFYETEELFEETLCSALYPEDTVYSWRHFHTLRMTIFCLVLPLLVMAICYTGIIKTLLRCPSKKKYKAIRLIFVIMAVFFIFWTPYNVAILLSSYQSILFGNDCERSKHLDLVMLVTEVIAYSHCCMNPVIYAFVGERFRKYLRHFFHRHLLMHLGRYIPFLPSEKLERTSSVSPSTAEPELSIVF
Give bare numbers, in µM.

Previously resolved entries follow.
[[record]]
compound = "CN1CCN(C(CNCCc2ccccc2)c2ccccc2)CC1 (stereo not drawn)"
parameter = "Ki"
observed_value = 21.8

[[record]]
compound = "COc1ccc(NC(=O)NCC(c2ccccc2OC)N2CCN(C3CCCCC3)CC2)cc1 (stereo not drawn)"
parameter = "Ki"
observed_value = 10.5

[[record]]
compound = "COc1ccccc1NC(=O)NCC(c1ccc(C(F)(F)F)cc1)N1CCN(C2CCCCC2)CC1 (stereo not drawn)"
parameter = "Ki"
observed_value = 3.65

[[record]]
compound = "COc1ccccc1C(CNCCc1cc(Cl)cc(Cl)c1)N1CCN(C2CCCCC2)CC1 (stereo not drawn)"
parameter = "Ki"
observed_value = 0.344

[[record]]
compound = "COc1ccccc1CCNCC(c1ccccc1OC)N1CCN(c2ccccc2)CC1 (stereo not drawn)"
parameter = "Ki"
observed_value = 1.58

[[record]]
compound = "CN(C)c1ccc(C(CNC(=O)Nc2cc(Cl)cc(Cl)c2)N2CCN(C3CCCCC3)CC2)cc1 (stereo not drawn)"
parameter = "Ki"
observed_value = 0.987

[[record]]
compound = "Cc1ccc(NC(=O)NCC(c2ccccc2)N2CCN(C3CCCCC3)CC2)cc1 (stereo not drawn)"
parameter = "Ki"
observed_value = 5.39

[[record]]
compound = "CN1CCN(C(CNC(=O)Nc2cc(Cl)cc(Cl)c2)c2ccc(C(F)(F)F)cc2)CC1 (stereo not drawn)"
parameter = "Ki"
observed_value = 5.18

[[record]]
compound = "COc1ccc(CCNCC(c2ccc(C(C)(C)C)cc2)N2CCN(C3CCCCC3)CC2)cc1 (stereo not drawn)"
parameter = "Ki"
observed_value = 0.346

[[record]]
compound = "Cc1ccc(NC(=O)NCC(c2ccccc2)N2CCN(c3ccccc3)CC2)cc1 (stereo not drawn)"
parameter = "Ki"
observed_value = 8.02


I need Ki for every entry listed below, if you could help.
1. Cc1cc(C)cc(NC(=O)NCC(CC(C)C)N2CCN(c3ccc(Cl)c(Cl)c3)CC2)c1 (stereo not drawn)
2. FC(F)(F)c1ccc(C(CNCCc2ccccc2)N2CCN(C3CCCCC3)CC2)cc1 (stereo not drawn)

Return:
1: 0.313; 2: 0.484

get_value(item= CN(C)c1ccc(CCNCC(c2ccc(C(F)(F)F)cc2)N2CCN(c3ccccc3)CC2)cc1 (stereo not drawn) , readout=Ki) returns 0.605
